# study.target: UniProt:Q02769
# Sequence (Q02769 whole entry): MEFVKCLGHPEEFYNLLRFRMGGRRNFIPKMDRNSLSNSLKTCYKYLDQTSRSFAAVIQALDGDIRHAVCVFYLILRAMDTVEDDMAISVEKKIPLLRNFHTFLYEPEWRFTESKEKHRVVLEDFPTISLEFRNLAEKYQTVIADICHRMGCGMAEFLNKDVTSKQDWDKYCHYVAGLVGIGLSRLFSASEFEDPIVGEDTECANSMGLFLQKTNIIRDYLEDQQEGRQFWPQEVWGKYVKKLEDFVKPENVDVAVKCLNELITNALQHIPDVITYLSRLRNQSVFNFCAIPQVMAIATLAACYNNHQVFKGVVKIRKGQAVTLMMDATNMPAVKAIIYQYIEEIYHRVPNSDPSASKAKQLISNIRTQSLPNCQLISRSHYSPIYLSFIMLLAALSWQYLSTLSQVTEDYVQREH
Here the recorded pIC50 is given for each entry.
// pIC50: -log10(molar conc.)

Study these solved cases before continuing.
[[record]]
query_smiles = "CC(C)=CCC/C(C)=C/c1ccc(COCP(=O)(O)CP(=O)(O)O)s1"
recorded_endpoint = "pIC50"
measured_result = 6.02

[[record]]
query_smiles = "CC(C)=CCC/C(C)=C\\CC/C=C/COCP(=O)(O)CP(=O)(O)O"
recorded_endpoint = "pIC50"
measured_result = 6.78

[[record]]
query_smiles = "CC(C)=CCC/C(C)=C/c1cc(C)c(COCP(=O)(O)CP(=O)(O)O)o1"
recorded_endpoint = "pIC50"
measured_result = 4.38

[[record]]
query_smiles = "CC(C)=CCC/C(C)=C\\CC/C(C)=C/COCP(=O)(O)CP(=O)(O)O"
recorded_endpoint = "pIC50"
measured_result = 7.30

[[record]]
query_smiles = "CC(C)=CCC/C(C)=C/c1cc(C)c(COCP(=O)(O)CP(=O)(O)O)s1"
recorded_endpoint = "pIC50"
measured_result = 5.28


What pIC50 value was documented for this molecule, "CC(C)=CCC/C(C)=C/c1ccc(COCP(=O)(O)CP(=O)(O)O)cc1" ?
6.90

Quick one: pIC50 of "CC(C)=CCC/C(C)=C/c1cccc(COCP(=O)(O)CP(=O)(O)O)c1" ?
5.29

Item "CC(C)=CCC/C(C)=C/c1ccc(COCP(=O)(O)CP(=O)(O)O)c(C)c1" has what recorded pIC50?
4.86
